System: rat primary hepatocytes
TEST_PROTOCOL: MMP assay in rat primary hepatocytes
MEASUREMENT_CONTEXT: Rattus norvegicus, Hepatocyte, 1 h, read-out: Rat hepatocytes IC50 (MMP)
QUANTITY: pIC50
In simple prose, pIC50 is minus the logarithm base ten of a concentration in moles per litre.

>>> result_number("C=C(c1ccc(C(=O)O)cc1)c1cc2c(cc1C)C(C)(C)CCC2(C)C [Bexarotene, reference compound]")
4.40
>>> result_number("O=C(O)c1cc(O)c2c(c1)C(=O)c1cccc(O)c1C2=O")
5.17
>>> result_number("Nc1ccc(N)c2c1C(=O)c1ccccc1C2=O")
5.42

// lookup pIC50 for NNc1nc(-c2ccc(N)cc2)cs1 [2-Hydrazino-4-(4-aminophenyl) thiazole]
4.70

---

Test system: HepG2 cells
MEASUREMENT_CONTEXT: read-out: HepG2 IC50 Galactose (MMP); 10 mM galactose, no glucose; 1 h treatment; mean±SD of three experiments
QUANTITY: IC50 (µM)
Give the value in µM but do not write µM after it.

Report IC50 for CCN1C(=CC=Cc2ccc3ccccc3[n+]2CC)C=Cc2ccccc21.[Cl-] [Pinacyanol chloride] please.
0.06

---

Each entry below lists one item and its recorded II-sub, % of control (O2 consumption rate) value.
Tested on: isolated rat liver mitochondria
TEST_PROTOCOL: Oxygen consumption, Clark-type oxygen electrode
Format: biochemical
MEASUREMENT_CONTEXT: 20 µM; succinate-driven state 4 respiration; isolated rat liver mitochondria

>>> result("O=C(O)c1cccnc1Nc1cccc(C(F)(F)F)c1 [Niflumic acid, reference compound]")
"195 (32.0) % of control"
>>> result("CCN1C(=CC=Cc2ccc3ccccc3[n+]2CC)C=Cc2ccccc21.[Cl-] [Pinacyanol chloride]")
"69 (14.3) % of control"
>>> result("CCc1cc(Cc2cc(CC)cc(C(C)(C)C)c2O)c(O)c(C(C)(C)C)c1")
"97 (29.7) % of control"

Could you share what II-sub, % of control (O2 consumption rate) was measured for NNc1nc(-c2ccc([N+](=O)[O-])cc2)cs1 [2-Hydrazino-4-(4-nitrophenyl) thiazole] , tested on isolated rat liver mitochondria?
99 (30.4) % of control

---

Test system: rat primary hepatocytes
TEST_PROTOCOL: MMP assay in rat primary hepatocytes
MEASUREMENT_CONTEXT: read-out: MMP assays IC50 (µM) Rat Hepatocytes
Counter-ions that a name gives are not always drawn.
QUANTITY: IC50
Give the number first and the unit second.

// below: answered compounds
>>> result("CC=O")
"6.65 µM"
>>> result("Nc1ccc(-c2ccc(N)c(N)c2)cc1N [3,3',4,4'-Tetraaminobiphenyl tetrahydrochloride]")
"9.46 µM"
>>> result("O=C(Nc1ccc([N+](=O)[O-])cc1)Nc1ccc([N+](=O)[O-])cc1")
"0.7 µM"
>>> result("[OH-].c1cc[c]([Sn+]([c]2ccccc2)[c]2ccccc2)cc1 [Triphenyltin hydroxide]")
"14.8 µM"
>>> result("Cc1cccc(C)c1OCC(=O)N[C@@H](Cc1ccccc1)[C@@H](O)C[C@H](Cc1ccccc1)NC(=O)[C@H](C(C)C)N1CCCNC1=O")
"15.4 µM"

IC50 of "Oc1ccc2ccccc2c1N=Nc1ccccc1" on rat primary hepatocytes?
17 µM

Give rat primary hepatocytes IC50 for "N=C(N)NN=C(/C=C/c1ccc([N+](=O)[O-])o1)/C=C/c1ccc([N+](=O)[O-])o1"
16.4 µM

So what IC50 did "O=[Se](O)O" get with rat primary hepatocytes?
44.1 µM

# query: IC50 | item "COc1cc(Cl)ccc1Oc1ccc(Cl)cc1Cl" | system: rat primary hepatocytes
45.9 µM
